Where do the numbers come from? From PubChem BioAssay (NCI).

assay: NCI Yeast Anticancer Drug Screen. Data for the rad14 strain (AID 159);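 also: 0% = growth of vehicle-treated control cultures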; conditions: S. cerevisiae rad14 strain growth inhibition; at 33.0 µM; active compounds read high
This is part of a sample that, as a whole, favours compounds with a hit. Of some 79,000 tested, about 15% had one in any assay.
READOUT: growth inhibition (%)
Give bare numbers, in %.

Use the examples below as a reference point.
>>> endpoint_value("O=C1C(Nc2ccccc2)=C(Oc2ccccc2)C(=O)c2ccccc21")
9
>>> endpoint_value("COc1cc2c3c(cccc3c1)C(=O)N(CCN(C)C)C2=O")
-3
>>> endpoint_value("CCC(=O)c1cccc2ccccc12")
-1
>>> endpoint_value("O=C(Cc1csc2[n+]1C(=O)/C(=C/c1ccc(Cl)cc1)S2)Nc1ccccc1")
33

// for each compound below, give its growth inhibition
1. O=C1c2cc([N+](=O)[O-])ccc2-c2cccc(F)c21
2. BrCc1cccc2ccc3cccc(CBr)c3c12
3. O=C1C(=O)c2ccccc2C=C1[N+](=O)[O-]
4. OC1CCCc2c1cc1ccc3cccc4ccc2c1c34 (stereo not drawn)
5. CCCCCCCCNC(=O)C1=C(C)NC(C)=C(C(=O)NCCCCCCCC)C1

1: 42; 2: -2; 3: 37; 4: 97; 5: 4

// for each compound below, give its growth inhibition
1. CN(CCc1ccccn1)c1ccc2c(c1)Cc1ccccc1-2
2. COc1ccccc1C(=O)OCC1CCCN2CCCCC12 (stereo not drawn)
3. CCC(C)COC(=O)c1ccc(N=Cc2ccc(C=Nc3ccc(C(=O)OCC(C)CC)cc3)cc2)cc1 (stereo not drawn)
4. CC(=O)Cc1ccc[cH-]1.[Fe+2].c1cc[cH-]c1
5. O=C1C=CC(=Nc2ccc3c(c2)Cc2cc(NC(=O)C(F)(F)F)ccc2-3)O1
6. COc1cc(C2SCC(=O)N2c2ccc(-c3ccc(-n4c(-c5ccccc5)nc5ccccc5c4=O)cc3)cc2)cc(OC)c1OC (stereo not drawn)
7. O=C1Nc2ccc(Cl)c(I)c2C1=O
8. COc1ccc2ccc3ccccc3c2c1C=O

1. 37
2. 98
3. 2
4. 34
5. 62
6. 6
7. 11
8. 14

---

experiment: NCI Yeast Anticancer Drug Screen. Data for the rad52 strain (AID 147);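 also: 0% = growth of vehicle-treated control cultures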; conditions: S. cerevisiae rad52 mutant growth inhibition; at 100.0 µM
The panel holds about 79,000 compounds, 15% with a hit somewhere; the sample as a whole holds those more often. The source made the active and inactive calls. No stated cut-off is given here; in the data, active means growth inhibition above about 70%; inactive means the rest.
Please answer using one outcome listed in active, inactive

Examples with answers:
>>> classification("COc1cc(CC2CC(c3ccc4c(c3)OCO4)OC2=O)cc(OC)c1OC (stereo unspecified)")
"inactive"
>>> classification("COc1cc2ccc(/C=C\\[N+](=O)[O-])cc2cc1OC")
"active"
>>> classification("COc1ccc2sc3cccc(NCCN(C)C)c3c(=O)c2c1")
"inactive"

Write down the call the test reported for this compound. Item: CC(C(=O)N1C(=O)N(C(=O)[C@H](C)C(O)c2ccccc2)[C@H](c2ccccc2)[C@H]1c1ccccc1)[C@@H](O)c1ccccc1 (stereo partly specified) inactive

Write down the call the test reported for this compound. Item: `O=C(NCCCCCCCN1CCCCCCC1)C(C1CCCCC1)C1CCCCC1` active

Write down the call the test reported for this compound. Item: CCCCCCCC1(N=[N+]=[N-])C(=O)c2ccccc2N(C)C1=O (stereo unspecified) active

---

experiment: NCI Yeast Anticancer Drug Screen. Data for the sgs1 strain (AID 173);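 also: 0% = growth of vehicle-only control cultures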; settings: S. cerevisiae sgs1 mutant, at 1.2 µM
About 79,000 compounds went through this panel and 15% of them were active in at least one assay; those are over-represented in the sample as a whole. Activity calls are given as the source filed them. No stated cut-off is given here; in the data, active means growth inhibition above about 70%; inactive means the rest.
Please answer using one outcome listed in active, inactive

Examples with answers:
>>> classification("CC1OCC2OC(C)OC(C3C4=C(CC(C)(C)CC4=O)OC4=C3C(=O)CC(C)(C)C4)C2O1 (stereo unspecified)")
"inactive"
>>> classification("S=C(Nc1ccc(Cl)cc1)SC1CCCCC1")
"inactive"
>>> classification("Cc1ccc2[nH]c3c(C)c4cc[n+](C)cc4c(C)c3c2c1")
"inactive"

Write down the call the test reported for this molecule. Item: `[O-][n+]1c2ccc(O)cc2nc2ccc(Cl)cc21` inactive

Write down the call the test reported for this molecule. Item: O=C1C2C=CC1C1C(=O)OC(=O)C21 (stereo unspecified) inactive

Write down the call the test reported for this molecule. Item: `S=C(N/N=C/c1ccccn1)Nc1ccc(Cl)cc1` inactive

Write down the call the test reported for this molecule. Item: `Oc1ccc2ccccc2c1C(c1ccc(Cl)cc1)c1c(O)ccc2ccccc12` inactive

Write down the call the test reported for this molecule. Item: `O=C1Nc2ccc(Cl)c(I)c2C1=O` inactive

---

experiment: NCI Yeast Anticancer Drug Screen. Data for the rad50 strain (AID 155);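 also: 0% = growth of vehicle-only cultures of the same strain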; conditions: S. cerevisiae rad50 strain growth inhibition; at 50.0 µM
Compounds without any hit were thinned out: in the full panel of roughly 79,000, 15% have a hit. The source made the active and inactive calls. Cut-off read from the data, not from the text of the source: active = growth inhibition above about 70%; inactive = the rest.
Please answer using one outcome listed in yes (1) = active, no (0) = inactive

Write down the call the test reported for this compound. Item: `CC[C@@]1(O)C(=O)OCc2c1cc1n(c2=O)Cc2cc3c(CN(C)C)c(O)ccc3nc2-1` yes (1)

Write down the call the test reported for this compound. Item: `Cn1c(=O)c(-c2ccccc2)c(N=[N+]=[N-])c2ccccc21` yes (1)

Write down the call the test reported for this compound. Item: `Nc1ccc2c(c1)C(=O)c1cccc(N)c1C2=O` yes (1)

Write down the call the test reported for this compound. Item: `S=C(N/N=C/c1ccccn1)Nc1ccc(Cl)cc1` no (0)

Write down the call the test reported for this compound. Item: `CC1=C(C)Cc2c(O)ccc(O)c2C1` yes (1)

Write down the call the test reported for this compound. Item: `CN(C)c1ccc(Sc2ccc3nc(N)nc(N)c3c2)cc1` no (0)

---

experiment: NCI Yeast Anticancer Drug Screen. Data for the rad14 strain (AID 159);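 also: 0% = growth of vehicle-treated control cultures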; conditions: S. cerevisiae rad14 strain growth inhibition; at 3.7 µM
This is part of a sample that, as a whole, favours compounds with a hit. Of some 79,000 tested, about 15% had one in any assay. Activity calls are given as the source filed them. Cut-off read from the data, not from the text of the source: active = growth inhibition above about 70%; inactive = the rest.
Please answer using one outcome listed in active, inactive

>>> classification("S=C(S)NN1CCOCC1")
"inactive"
>>> classification("Cc1ccc(C2C(Cl)C(=O)N2n2cnc3ccccc3c2=O)cc1 (stereo not given)")
"inactive"
>>> classification("CCOP(=O)(OCC)C(Cc1ccccc1)N=C(c1ccccc1)c1ccccc1 (stereo not given)")
"inactive"
>>> classification("Oc1cccc2c(Cl)ccnc12")
"active"
>>> classification("c1ccc2c(c1)sc1nc3ccncc3nc12")
"inactive"
>>> classification("Cc1c(Cl)ccc2c1S(=O)(=O)c1cccc(Cl)c1-2")
"inactive"
>>> classification("O=C1CSC(/C=C/c2ccccc2)N1c1ccc(-c2ccc(-n3c(-c4ccccc4)nc4ccccc4c3=O)cc2)cc1 (stereo not given)")
"inactive"
>>> classification("CCN(CC)CC(O)c1ccc2ccc3ccccc3c2c1 (stereo not given)")
"inactive"
>>> classification("O=C1c2ccccc2-c2nc3ccccc3nc21")
"inactive"
>>> classification("COC(=O)CSSCc1ccc([N+](=O)[O-])cc1")
"inactive"

Write down the call the test reported for this compound. Item: `[N-]=[N+]=NC1=C(c2ccccn2)C(=O)c2cccc3cccc1c23` inactive

Write down the call the test reported for this compound. Item: `CC/C(=C(\c1ccccc1)c1ccc(OCCN(C)C)cc1)c1ccccc1` inactive

Write down the call the test reported for this compound. Item: `CCCCCCc1cc(C(=O)OC/C(C)=N/NC(N)=O)c2ccccc2n1` inactive

Write down the call the test reported for this compound. Item: `c1ccc2c(c1)NC(NC1Nc3ccccc3N1)N2` inactive

Write down the call the test reported for this compound. Item: `O=CNc1ccc2c(c1)C(=O)c1ccccc1-2` inactive

---

assay: NCI Yeast Anticancer Drug Screen. Data for the sgs1 strain (AID 173);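 also: 0% = growth of vehicle-only control cultures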; conditions: S. cerevisiae sgs1 mutant, at 3.7 µM, active compounds read high
About 79,000 compounds went through this panel and 15% of them were active in at least one assay; those are over-represented in the sample as a whole. Active and inactive are the calls of the source. Cut-off read from the data, not from the text of the source: active = growth inhibition above about 70%; inactive = the rest.
READOUT: growth inhibition

Use the examples below as a reference point.
>>> endpoint_value("Cc1ccc(S(=O)(=O)NCCSS(=O)(=O)c2ccc(C)cc2)cc1")
"21% (inactive)"
>>> endpoint_value("NC(=NCc1ccccc1)N/N=C\\c1ccnc2ccccc12")
"0% (inactive)"
>>> endpoint_value("CCC/C(Cl)=N\\OC(=O)Nc1cccc(C(F)(F)F)c1")
"62% (inactive)"

// for each compound below, give its growth inhibition
1. COc1ccc2nc3c([N+](=O)[O-])ccc(NCCN(C)C)c3c(NCCN(C)C)c2c1
2. CC(=O)OC1CCC2(C)C(=CCC3C4CCC5(OC6CC(C)CN(C(C)=O)C6C5C)C(C)=C4C(=O)C32)C1 (stereo unspecified)

1. 6% (inactive)
2. -9% (inactive)

// for each compound below, give its growth inhibition
1. O=C(CCCN1CCC2(CC1)CC(=O)N(N1CCCCCC1)C2=O)c1ccc(F)cc1
2. c1ccc2c(c1)c1ncccc1c1nccnc21
3. COc1ccccc1C(=O)OCC1CCCN2CCCCC12 (stereo unspecified)
4. Clc1ccccc1C1OC1c1ccccc1Cl (stereo unspecified)
5. CNC(=O)OCc1c(COC(=O)NC)c(-c2ccc(-c3ccccc3)cc2)n(C)c1C
6. Cc1ccc(-n2cc(-c3ccc(Cl)cc3)c(C#N)c2N)cc1

["45% (inactive)", "-14% (inactive)", "-15% (inactive)", "-72% (inactive)", "-25% (inactive)", "0% (inactive)"]
